- tested_target: human H3R (Homo sapiens, UniProt Q9Y5N1)
- Sequence (Q9Y5N1 whole entry): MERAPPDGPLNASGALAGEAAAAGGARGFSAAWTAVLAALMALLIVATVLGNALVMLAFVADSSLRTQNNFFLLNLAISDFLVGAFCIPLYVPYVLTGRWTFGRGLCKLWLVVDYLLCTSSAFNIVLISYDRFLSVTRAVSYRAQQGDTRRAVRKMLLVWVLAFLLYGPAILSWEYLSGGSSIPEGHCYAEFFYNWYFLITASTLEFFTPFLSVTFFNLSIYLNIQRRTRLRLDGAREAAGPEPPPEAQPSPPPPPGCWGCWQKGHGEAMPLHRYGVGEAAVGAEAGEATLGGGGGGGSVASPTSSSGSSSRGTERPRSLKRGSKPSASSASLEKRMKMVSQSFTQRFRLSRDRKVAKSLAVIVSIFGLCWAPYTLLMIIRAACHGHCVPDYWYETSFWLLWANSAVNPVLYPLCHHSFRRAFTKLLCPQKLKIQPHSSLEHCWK
- test_description: Human H3R radioligand displacement assay
- conditions: read-out: hH3R Inhibition at 1 µM [%] ±SD (n)
Classification field: enter Satisfied for inhibition at 1 µM values not below 50%, Not satisfied for values below it.

molecule: O=C(NCC1CCCCC1)c1nc2ccc(OCCCCNCC3CCCCC3)cc2s1 [Compound 3l]
category: Satisfied
--
molecule: O=C(NCC1CCCCC1)c1nc2ccc(OCCNCC3CCCCC3)cc2s1 [Compound 3c]
category: Not satisfied
--
molecule: COC(=O)c1nc2ccc(OCCN3CCOCC3)cc2s1 [Compound 1d]
category: Not satisfied
--
molecule: CCOC(=O)c1nc2ccc(OCCN3CCCCC3)cc2s1 [Compound 1b]
category: Not satisfied
--
molecule: O=C(c1nc2ccc(OCCN3CCCCC3)cc2s1)N1CCCCC1 [Compound 3a]
category: Satisfied
--
molecule: O=C(NC1CCCCCC1)c1nc2ccc(OCCCCNC3CCCCCC3)cc2s1 [Compound 3k]
category: Not satisfied
--
molecule: O=C(NC1CC1)c1nc2ccc(OCCCCCNC3CC3)cc2s1 [Compound 3r]
category: Not satisfied
--
molecule: CCOC(=O)c1nc2ccc(OCCN3CCOCC3)cc2s1 [Compound 1a]
category: Satisfied
--
molecule: O=C(NC1CC1)c1nc2ccc(OCCCCNC3CC3)cc2s1 [Compound 3m]
category: Satisfied
--
molecule: COC(=O)c1nc2ccc(OCCN3CCCCC3)cc2s1 [Compound 1e]
category: Satisfied

* * *

- tested_target: BuChE from human serum (Homo sapiens, UniProt P06276)
- Sequence (P06276 29-602): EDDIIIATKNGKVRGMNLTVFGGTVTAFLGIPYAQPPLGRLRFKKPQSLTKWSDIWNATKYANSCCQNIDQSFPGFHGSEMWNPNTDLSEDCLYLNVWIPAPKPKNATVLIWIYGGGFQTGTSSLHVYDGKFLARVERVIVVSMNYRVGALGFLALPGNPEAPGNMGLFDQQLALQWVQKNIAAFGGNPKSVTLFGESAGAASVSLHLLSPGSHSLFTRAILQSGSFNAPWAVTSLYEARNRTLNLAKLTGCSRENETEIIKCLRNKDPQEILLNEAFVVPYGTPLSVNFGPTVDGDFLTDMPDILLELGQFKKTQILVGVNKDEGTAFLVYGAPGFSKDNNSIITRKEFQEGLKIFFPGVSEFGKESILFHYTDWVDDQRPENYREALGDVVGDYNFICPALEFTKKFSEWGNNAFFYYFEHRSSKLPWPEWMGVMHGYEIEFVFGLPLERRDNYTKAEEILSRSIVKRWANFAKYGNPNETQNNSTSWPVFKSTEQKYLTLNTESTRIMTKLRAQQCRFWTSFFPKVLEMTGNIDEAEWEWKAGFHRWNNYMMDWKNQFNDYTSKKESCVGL
- test_description: Inhibition of BuChE
pIC50: −log10 of the molar value.
quantity_measured: pIC50

compound: O=C(c1nc2ccc(OCCCCCN3CCCC3)cc2s1)N1CCCC1 [Compound 3s]
measured_number: 5.63

compound: O=C(c1nc2ccc(OCCCCN3CCCCC3)cc2s1)N1CCCCC1 [Compound 3j]
measured_number: 5.51

compound: O=C(c1nc2ccc(OCCCCN3CCCC3)cc2s1)N1CCCC1 [Compound 3n]
measured_number: 5.88

compound: O=C(c1nc2ccc(OCCCCCN3CCCCC3)cc2s1)N1CCCCC1 [Compound 3o]
measured_number: 5.62

compound: O=C(NC1CCCC1)c1nc2ccc(OCCCCCNC3CCCC3)cc2s1 [Compound 3t]
measured_number: 5.76

compound: O=C(NCCN1CCCC1)c1nc2ccc(OCCCNCCN3CCCC3)cc2s1 [Compound 4a]
measured_number: 6.77

compound: O=C(c1nc2ccc(OCCN3CCCC3)cc2s1)N1CCCC1 [Compound 3b]
measured_number: 5.27

* * *

- tested_target: human AChE (Homo sapiens, UniProt P22303)
- Sequence (P22303 32-614): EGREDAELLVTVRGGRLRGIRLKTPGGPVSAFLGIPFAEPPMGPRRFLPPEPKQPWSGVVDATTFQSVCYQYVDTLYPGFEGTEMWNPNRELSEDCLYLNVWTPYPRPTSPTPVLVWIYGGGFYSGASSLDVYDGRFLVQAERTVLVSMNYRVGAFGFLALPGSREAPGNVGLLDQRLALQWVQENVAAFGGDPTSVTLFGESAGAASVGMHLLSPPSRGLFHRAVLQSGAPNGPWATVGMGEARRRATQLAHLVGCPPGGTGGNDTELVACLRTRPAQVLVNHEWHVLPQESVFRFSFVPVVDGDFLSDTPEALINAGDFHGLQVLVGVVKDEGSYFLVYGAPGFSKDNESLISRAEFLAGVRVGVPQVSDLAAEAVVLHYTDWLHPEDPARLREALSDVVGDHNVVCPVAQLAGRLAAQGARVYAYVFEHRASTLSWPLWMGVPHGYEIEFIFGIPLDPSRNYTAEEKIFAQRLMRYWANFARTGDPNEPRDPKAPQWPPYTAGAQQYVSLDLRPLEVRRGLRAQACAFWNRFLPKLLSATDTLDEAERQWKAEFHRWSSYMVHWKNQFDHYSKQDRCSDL
quantity_measured: IC50

smiles_structure: O=C(NC1CCCCCC1)c1nc2ccc(OCCCCCNC3CCCCCC3)cc2s1
tested_target: human AChE (Homo sapiens, UniProt P22303)
result: > 10 µM

smiles_structure: CN1CCN(CCCOc2ccc3nc(C(=O)N4CCN(C)CC4)sc3c2)CC1
tested_target: human AChE (Homo sapiens, UniProt P22303)
result: > 10 µM

smiles_structure: O=C(c1nc2ccc(OCCN3CCCCC3)cc2s1)N1CCCCC1
tested_target: human AChE (Homo sapiens, UniProt P22303)
result: > 10 µM

smiles_structure: O=C(NC1CCCCCC1)c1nc2ccc(OCCCCNC3CCCCCC3)cc2s1
tested_target: human AChE (Homo sapiens, UniProt P22303)
result: > 10 µM

smiles_structure: O=C(c1nc2ccc(OCCCCN3CCCCC3)cc2s1)N1CCCCC1
tested_target: human AChE (Homo sapiens, UniProt P22303)
result: 8.56 µM
